Just for reference, patent US4575497A is where these values come from.

Field: Minimum inhibitory concentration (MIC). Provide a value for each of the molecules that follow.
tested on: Klebsiella pneumoniae KB214; assay: MIC against Klebsiella pneumoniae KB214 (G); format: cell-based; conditions: Heart infusion agar (pH 7.0)
One number for each entry, in μ g/ml.

- molecule: "CO[C@@H]1[C@@H](O[C@@H]2O[C@H](C)[C@@H](O[C@H]3C[C@@](C)(O)[C@@H](O)[C@H](C)O3)[C@H](N(C)C)[C@H]2O)[C@@H](CC=O)C[C@@H](C)[C@@H](O[C@H]2CC[C@H](N(C)C)[C@@H](C)O2)/C=C/C=C/C[C@@H](C)OC(=O)C[C@H]1O"
  Minimum inhibitory concentration (MIC) / μ g/ml: 100

Query: Which Minimum inhibitory concentration (MIC) reading was recorded for the molecule CCCC(=O)OC1C(C)OC(OC2C(C)OC(OC3C(CC=O)CC(C)C(OC4CCC(N(C)C)C(C)O4)C=CC=CCC(C)OC(=O)CC(OC(C)=O)C3OC)C(O)C2N(C)C)CC1(C)OC(C)=O (centres unmarked) ?
Result: 100
